experiment notes: self-splicing fitness, log relative to wild type (ln ratio); higher = more splicing; Tetrahymena group I intron in knt gene, E. coli kanamycin selection, DiMSum; sequences stand for … in CUCUCU…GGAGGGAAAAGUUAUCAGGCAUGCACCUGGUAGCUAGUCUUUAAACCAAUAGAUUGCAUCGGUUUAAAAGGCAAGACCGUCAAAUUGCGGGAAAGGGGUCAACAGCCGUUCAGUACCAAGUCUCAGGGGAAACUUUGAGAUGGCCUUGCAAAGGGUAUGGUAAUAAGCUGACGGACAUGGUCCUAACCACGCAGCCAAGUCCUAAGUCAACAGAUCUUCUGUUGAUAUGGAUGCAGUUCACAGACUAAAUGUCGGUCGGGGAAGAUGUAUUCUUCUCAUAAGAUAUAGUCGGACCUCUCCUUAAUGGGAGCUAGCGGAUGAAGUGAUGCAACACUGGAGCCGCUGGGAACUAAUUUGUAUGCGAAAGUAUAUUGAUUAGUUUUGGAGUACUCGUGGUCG;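 note: selection with 25 µg/mL kanamycin versus none on LB agar overnight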
condition: 37 °C
Values of self-splicing fitness (ln) greater than or equal to -0.6 map to y; values below map to n.

Before answering, review these 3 worked examples.
GAUAAGCAAUAUUACGGGCG
n
AGUAAGCAAUAUUACGAUGG
n
ACUUAGCAAUAUUACGAGCG
y

Enquiry: Quick check, self-splicing fitness (ln) >= -0.6? GUUUAGCAAUAUUACGUCGU
Return: n

Enquiry: Quick check, self-splicing fitness (ln) >= -0.6? GGUCAGCAAUAUUACGUCAU
Return: y

====

experiment notes: self-splicing fitness, log relative to wild type (ln ratio); higher = more splicing; Tetrahymena group I intron in knt gene, E. coli kanamycin selection, DiMSum; sequences stand for … in CUCUCU…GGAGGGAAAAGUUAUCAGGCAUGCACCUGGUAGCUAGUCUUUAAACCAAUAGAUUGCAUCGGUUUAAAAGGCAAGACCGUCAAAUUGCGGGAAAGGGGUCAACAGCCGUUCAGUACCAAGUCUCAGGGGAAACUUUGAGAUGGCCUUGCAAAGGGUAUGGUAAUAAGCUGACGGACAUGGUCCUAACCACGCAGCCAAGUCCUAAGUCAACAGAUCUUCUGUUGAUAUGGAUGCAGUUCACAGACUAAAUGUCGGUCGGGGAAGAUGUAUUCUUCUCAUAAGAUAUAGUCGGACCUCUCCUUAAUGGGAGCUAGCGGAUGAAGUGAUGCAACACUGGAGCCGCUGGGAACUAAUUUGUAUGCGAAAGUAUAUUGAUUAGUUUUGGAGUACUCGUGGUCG
condition: 30 °C
Values of self-splicing fitness (ln) greater than or equal to -3 map to met; values below map to not met.

Before answering, review these 3 worked examples.
GACCAGCAAUAUUACGCCCU
met
CGAGAGCAAUAUUACGAAAG
not met
AACAAGCAAUAUUACGUUUA
met

Enquiry: Quick check, self-splicing fitness (ln) >= -3? AAAUAGCAAUAUUACGCCUA
Return: met

Enquiry: Quick check, self-splicing fitness (ln) >= -3? GUUAAGCAAUAUUACGGCUC
Return: met

====

experiment notes: self-splicing fitness, log relative to wild type (ln ratio); higher = more splicing; Tetrahymena group I intron in knt gene, E. coli kanamycin selection, DiMSum; sequences stand for … in CUCUCU…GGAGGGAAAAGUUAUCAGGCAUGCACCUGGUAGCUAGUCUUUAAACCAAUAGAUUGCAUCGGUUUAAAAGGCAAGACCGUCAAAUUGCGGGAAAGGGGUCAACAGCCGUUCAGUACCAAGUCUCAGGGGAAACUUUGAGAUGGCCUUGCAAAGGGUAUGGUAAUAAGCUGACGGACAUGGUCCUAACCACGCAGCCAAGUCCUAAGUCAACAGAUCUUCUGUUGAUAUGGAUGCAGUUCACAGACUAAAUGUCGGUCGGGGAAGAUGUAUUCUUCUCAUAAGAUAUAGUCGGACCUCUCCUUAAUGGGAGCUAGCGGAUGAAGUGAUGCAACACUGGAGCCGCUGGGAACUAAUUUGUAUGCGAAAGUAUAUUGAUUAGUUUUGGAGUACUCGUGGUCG
condition: 37 °C
observed property: self-splicing fitness (ln)
# output: bare number, no unit

Solved cases (5 shown):
AUUCAGCAAUAUUACGUAUG
-0.383
CGCUAGCAAUAUUACGACGA
0.422
UAUAAGCAAUAUUACGUUUA
-0.548
UUGAAGCAAUAUUACGCUCA
1.17
UGGAAGCAAUAUUACGGGUA
-1.05

# sequence CUUGAGCAAUAUUACGCUGU ; its self-splicing fitness (ln) = -2.06

# sequence AGGAAGCAAUAUUACGGAAU ; its self-splicing fitness (ln) = -2.14

# sequence CAUGAGCAAUAUUACGGAGU ; its self-splicing fitness (ln) = -3.1
